Molecular target: progesterone receptor (Homo sapiens, UniProt P06401)
Construct: expressed in transfected cells; host or cells: CV-1 cells transduced with PRb-BacMam and MMTV-BacMam
Sequence (P06401 1-933): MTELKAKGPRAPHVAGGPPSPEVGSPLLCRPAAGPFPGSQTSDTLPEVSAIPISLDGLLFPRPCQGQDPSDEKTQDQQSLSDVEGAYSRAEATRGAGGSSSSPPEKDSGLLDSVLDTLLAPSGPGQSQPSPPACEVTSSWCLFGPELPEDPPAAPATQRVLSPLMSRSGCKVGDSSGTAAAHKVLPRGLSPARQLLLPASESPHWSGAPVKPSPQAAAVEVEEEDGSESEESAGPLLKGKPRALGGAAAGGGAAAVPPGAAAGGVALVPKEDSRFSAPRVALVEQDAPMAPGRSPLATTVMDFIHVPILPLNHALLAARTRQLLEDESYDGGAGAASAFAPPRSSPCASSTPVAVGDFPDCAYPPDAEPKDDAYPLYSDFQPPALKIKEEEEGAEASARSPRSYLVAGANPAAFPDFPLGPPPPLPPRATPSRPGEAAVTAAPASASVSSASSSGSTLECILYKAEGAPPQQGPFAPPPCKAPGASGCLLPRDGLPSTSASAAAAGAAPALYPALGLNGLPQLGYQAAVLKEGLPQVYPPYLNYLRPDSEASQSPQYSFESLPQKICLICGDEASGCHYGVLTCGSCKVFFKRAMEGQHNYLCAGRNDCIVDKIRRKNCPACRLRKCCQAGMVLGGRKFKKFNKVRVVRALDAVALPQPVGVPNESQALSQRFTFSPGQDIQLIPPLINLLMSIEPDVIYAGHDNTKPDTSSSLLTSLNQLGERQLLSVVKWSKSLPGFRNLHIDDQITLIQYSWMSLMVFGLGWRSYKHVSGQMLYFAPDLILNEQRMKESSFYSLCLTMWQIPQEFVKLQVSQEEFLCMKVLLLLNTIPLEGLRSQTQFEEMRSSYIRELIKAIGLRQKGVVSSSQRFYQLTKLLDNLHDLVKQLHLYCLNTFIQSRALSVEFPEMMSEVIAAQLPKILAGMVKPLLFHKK
Assay: Assay for progesterone receptor activity (CV-1 cells, PRb-BacMam/MMTV-BacMam)
Type: cell-based
Conditions: CV-1 cells transduced with PRb-BacMam and MMTV-BacMam; read-out: pEC50 progesterone receptor activity (converted)
Exercise: for every item that follows, state its recorded EC50.

Exercise: Entry CCN(CC(O)(CNC(=O)c1cnn(-c2ccc(Cl)cc2)c1N)C(F)(F)F)C(=O)c1c(F)cccc1F (racemic) [Example 39 (racemic)] needs its EC50 filled in; supply it.
Key: > 1000 nM

Exercise: Entry CCN(CC(O)(CNC(=O)c1cnn(-c2ccc(F)cc2)c1N)C(F)(F)F)C(=O)c1c(OC(F)F)cccc1OC(F)F (racemic) [Example 26 (racemic)] needs its EC50 filled in; supply it.
Key: > 1000 nM

Exercise: Entry Nc1c(C(=O)NCC(O)(CN(CCF)C(=O)c2c(F)cccc2C(F)(F)F)C(F)(F)F)cnn1-c1ccc(F)cc1 (racemic) [Example 18 (racemic)] needs its EC50 filled in; supply it.
Key: > 1000 nM

----------
Target: glucocorticoid receptor (Homo sapiens, UniProt P04150)
Construct: a partially purified full length glucocorticoid receptor
Sequence (P04150 whole entry, species assumed): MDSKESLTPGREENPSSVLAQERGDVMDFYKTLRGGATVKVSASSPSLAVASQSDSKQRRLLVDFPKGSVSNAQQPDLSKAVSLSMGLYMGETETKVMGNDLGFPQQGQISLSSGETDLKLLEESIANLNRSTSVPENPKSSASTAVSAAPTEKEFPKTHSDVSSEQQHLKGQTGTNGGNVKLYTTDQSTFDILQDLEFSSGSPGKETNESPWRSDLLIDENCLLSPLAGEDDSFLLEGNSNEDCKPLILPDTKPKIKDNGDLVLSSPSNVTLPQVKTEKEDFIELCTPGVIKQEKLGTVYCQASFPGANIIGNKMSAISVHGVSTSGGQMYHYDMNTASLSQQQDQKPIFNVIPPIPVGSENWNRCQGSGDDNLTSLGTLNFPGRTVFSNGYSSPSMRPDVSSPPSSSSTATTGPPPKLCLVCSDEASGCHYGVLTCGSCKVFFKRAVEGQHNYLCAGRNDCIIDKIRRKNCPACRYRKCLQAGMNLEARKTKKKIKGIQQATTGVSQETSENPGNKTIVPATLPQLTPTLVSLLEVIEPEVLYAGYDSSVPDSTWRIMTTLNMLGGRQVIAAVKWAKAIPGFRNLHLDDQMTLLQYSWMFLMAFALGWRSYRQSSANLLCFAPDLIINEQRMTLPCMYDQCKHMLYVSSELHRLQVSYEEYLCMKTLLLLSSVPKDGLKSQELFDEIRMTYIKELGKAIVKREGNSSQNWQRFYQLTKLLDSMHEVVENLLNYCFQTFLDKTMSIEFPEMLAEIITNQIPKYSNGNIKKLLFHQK
Experiment: Glucocorticoid receptor binding assay (fluorescence polarisation)
Details: competition with Alexa 555 fluorescently-labelled dexamethasone derivative, full length glucocorticoid receptor; read-out: glucocorticoid binding pIC50 (converted)
Parameter: IC50

Exercise: Provide the reported IC50 (system: glucocorticoid receptor (Homo sapiens, UniProt P04150)) for CCN(CC(O)(CNC(=O)c1cnn(-c2cc(F)ccc2F)c1N)C(F)(F)F)C(=O)c1c(F)cccc1F (racemic) [Example 36 (racemic)]
Key: ≤ 0.316 µM

Exercise: Provide the reported IC50 (system: glucocorticoid receptor (Homo sapiens, UniProt P04150)) for CCN(CC(O)(CNC(=O)c1cnn(-c2ccc(F)c(F)c2)c1N)C(F)(F)F)C(=O)c1c(F)cccc1F (racemic) [Example 33 (racemic)]
Key: ≤ 0.316 µM

Exercise: Provide the reported IC50 (system: glucocorticoid receptor (Homo sapiens, UniProt P04150)) for CN(CC(O)(CNC(=O)c1cnn(-c2ccc(F)cc2)c1N)C(F)(F)F)C(=O)c1c(Cl)cccc1Cl (single isomer, unassigned) [Example 1 Enantiomer 1]
Key: ≤ 0.316 µM
